Organism: Rattus norvegicus
Experiment: Open TG-GATES - Regimen: Daily Repeat
Type: toxicity, organism-based, Sprague-Dawley
Design: regimen Daily Repeat, gender Male, age 6 weeks
Conditions: in vivo, po, 0 mg/kg, […], tissue Plasma, route gavage, dose level Control, time 28 day
1 if K is below 4 meq/L. -1 if not; exact matches included in -1.

{"molecule": "C=C(C)[C@H]1Cc2c(ccc3c2O[C@@H]2COc4cc(OC)c(OC)cc4[C@@H]2C3=O)O1", "label": -1}
{"molecule": "OCCN1CCN(CCCN2c3ccccc3Sc3ccc(C(F)(F)F)cc32)CC1", "label": -1}
{"molecule": "O=[N+]([O-])c1ccc(O)c([N+](=O)[O-])c1", "label": -1}
{"molecule": "O=C1CN(/N=C/c2ccc([N+](=O)[O-])o2)C(=O)N1", "label": 1}
{"molecule": "CCOC(=O)C(C)(C)Oc1ccc(Cl)cc1 [CLOFIBRATE]", "label": 1}
{"molecule": "Cn1cc[nH]c1=S", "label": -1}
{"molecule": "C[C@H]1O[C@H](O[C@H]2[C@H](O)[C@@H](O)[C@@H](O[C@H]3[C@H](O)[C@@H](O)C(O)O[C@@H]3CO)O[C@@H]2CO)[C@H](O)[C@@H](O)[C@@H]1N[C@H]1C=C(CO)[C@@H](O)[C@H](O)[C@H]1O (some centres undefined)", "label": -1}
{"molecule": "Cc1cccc(C)c1OCC(C)N (centres undefined)", "label": 1}
